system: biotinyl-Leu-oxazolone; test: self-aminoacylation, catalytic enhancement (BLO) (fold over background); higher = more active; k-Seq, kA / k0A0; sequences stand for … in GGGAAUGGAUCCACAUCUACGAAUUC…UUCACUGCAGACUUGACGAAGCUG
Fewer inactive variants are shown than the library holds.
Measured Property: self-aminoacylation
Please give the numeric answer without any surrounding text.

Sample records with self-aminoacylation:
CUACUUCAAACCAACGGUCUG [Fam1A.1 aminoacylation ribozyme variant]; 0.587
AAGUUUGCUAAUAGUAUCAAG [Fam3.1 aminoacylation ribozyme variant]; 0.714

Then there is this sequence:
Lab note: measured self-aminoacylation of AUUCACUUAGGUCAUCGGGUG [Fam2.2 aminoacylation ribozyme variant] was 8.1

###

Parameter: self-aminoacylation. Scope: all listed entries.
system: biotinyl-Val-oxazolone; experiment: self-aminoacylation, catalytic enhancement (BVO) (fold over background); higher = more active; k-Seq, kA / k0A0; sequences stand for … in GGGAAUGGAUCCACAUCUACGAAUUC…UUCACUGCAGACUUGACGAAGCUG
Fewer inactive variants are shown than the library holds.
Write the number on its own, no unit after it.

// worked examples, self-aminoacylation included
AAGUUUGCUAAUAGUCUUAAG [Fam3.1 aminoacylation ribozyme variant]; 1.11
AUUCACCUAGGACAUCUGGUG [Fam2.2 aminoacylation ribozyme variant]; 1.72
AUUACCCUGCACAUCGAGUGA [Fam2.1 aminoacylation ribozyme variant]; 3.65
CCACACUUCAAGCAAGCGGUA [Fam1B.1 aminoacylation ribozyme variant]; 1.2
CCACACUUCAAGCAGGCGGUC [Fam1B.1 aminoacylation ribozyme variant]; 1.54
CUACUUCGAACAAUAGGUCUG [Fam1A.1 aminoacylation ribozyme variant]; 0.745
UUACUUCAAACAAUCGGUCUC [Fam1A.1 aminoacylation ribozyme variant]; 1.04

Could you now consider this next sequence?
The reported value for AUUCACCUUGGUCAUCGGGAG [Fam2.2 aminoacylation ribozyme variant] in terms of self-aminoacylation is 1.05

###

test system: biotinyl-Met-oxazolone; assay: self-aminoacylation, catalytic enhancement (BMO) (fold over background); higher = more active; k-Seq, kA / k0A0; sequences stand for … in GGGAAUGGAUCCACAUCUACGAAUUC…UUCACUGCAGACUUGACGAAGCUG
Fewer inactive variants are shown than the library holds.
Note: every record was labeled by where its self-aminoacylation sits among lo (below 0.8), med (0.8 to below 2), hi (2 or more)

CCACACCGCAAGCAAUCGGUC [Fam1B.1 aminoacylation ribozyme variant]; med

Query: Which bin, given its self-aminoacylation, does AUUCCCCUAGGUCAUCGGUUG [Fam2.2 aminoacylation ribozyme variant] occupy?
Reply: hi

Query: For this sequence, which bin applies? CUACUUCACAAAAUCGGUCUG [Fam1A.1 aminoacylation ribozyme variant]
Reply: med

Query: Classify this sequence: CUACUUCAAACGACCGGUCUG [Fam1A.1 aminoacylation ribozyme variant]
Reply: lo

Query: Which band does CUAGUUCAAAAAAUCGGUCUG [Fam1A.1 aminoacylation ribozyme variant] fall in?
Reply: med

Query: Which category does the recorded self-aminoacylation put AGGUUUGCUAAUAAUCGCAAG [Fam3.1 aminoacylation ribozyme variant] in?
Reply: lo

Query: Categorize the following entry: CCACACUUCAAGCACUCGGUG [Fam1B.1 aminoacylation ribozyme variant]
Reply: hi

Query: Would you mind sorting CUUGUUCAAACAAUCGGUCUG [Fam1A.1 aminoacylation ribozyme variant] into the appropriate category?
Reply: med

###

tested on: biotinyl-Met-oxazolone; assay: self-aminoacylation, catalytic enhancement (BMO) (fold over background); higher = more active; k-Seq, kA / k0A0; sequences stand for … in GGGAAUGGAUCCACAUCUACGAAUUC…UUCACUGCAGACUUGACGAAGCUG
Fewer inactive variants are shown than the library holds.
Here the recorded self-aminoacylation is given for each entry.
Note: the reply should be a number with no unit written.

Some entries whose results are on file:
CCACACUUAAAGCAAUCGGUG [Fam1B.1 aminoacylation ribozyme variant]; 3.87
AUUACCCUCGUCAUCGAGUGA [Fam2.1 aminoacylation ribozyme variant]; 2.98
CCACAUCAAACAAUCGGUCUG [Fam1A.1 aminoacylation ribozyme variant]; 1.04
AAGUUUGCUAAUAUCCGCAAG [Fam3.1 aminoacylation ribozyme variant]; 0.725
AUUCACCUAUAUCAUCGGGUG [Fam2.2 aminoacylation ribozyme variant]; 4.73

Summary for this sequence, AUUCACCUUGGUCAACGGGUG [Fam2.2 aminoacylation ribozyme variant] : self-aminoacylation is 3.19

So, AAUUUUGCUAAUAGUCUCAAG [Fam3.1 aminoacylation ribozyme variant] ? Its self-aminoacylation was 1.21

The recorded self-aminoacylation for entry AAUUUUGCUAAUAGGCGCAAG [Fam3.1 aminoacylation ribozyme variant] equals 1.43

###

tested on: biotinyl-Phe-oxazolone; experiment: self-aminoacylation, catalytic enhancement (BFO) (fold over background); higher = more active; k-Seq, kA / k0A0; sequences stand for … in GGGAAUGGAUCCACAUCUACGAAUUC…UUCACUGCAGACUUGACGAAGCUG
This sample holds only a part of the variants without activity.
Listing: self-aminoacylation of selected sequences
// return just the number, without any unit appended

AUUCACCUAGGUCAUCCGGUG [Fam2.2 aminoacylation ribozyme variant]; 44.9
AUUACCCUGGUAAACGAGUGA [Fam2.1 aminoacylation ribozyme variant]; 150
AAGUUUGCUAAUAGUAGCUAG [Fam3.1 aminoacylation ribozyme variant]; 1.05

Form: sequence = AUUACCCUGGUCAUUUAGUGA [Fam2.1 aminoacylation ribozyme variant] ; self-aminoacylation = 70

Record AAGUCUGCUAAUCGUCGCAAG [Fam3.1 aminoacylation ribozyme variant] . Reported self-aminoacylation: 4.49

###

test system: biotinyl-Trp-oxazolone; test: self-aminoacylation, catalytic enhancement (BWO) (fold over background); higher = more active; k-Seq, kA / k0A0; sequences stand for … in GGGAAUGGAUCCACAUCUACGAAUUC…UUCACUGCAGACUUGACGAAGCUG
Fewer inactive variants are shown than the library holds.
Measured Property: self-aminoacylation
// return a plain number; no unit text

Briefly, self-aminoacylation measured for AUACUUCAAACAAUCGUUCUG [Fam1A.1 aminoacylation ribozyme variant] : 0.897

Please fill in: self-aminoacylation reported for CUACUUCAACCAAUCGGUAUG [Fam1A.1 aminoacylation ribozyme variant] = 4.25

// recorded self-aminoacylation for AUUACCCUAGUCAGCGAGUGA [Fam2.1 aminoacylation ribozyme variant] : 6.79

What the record says about AAUAUUGCUAAUAGUCGCAAG [Fam3.1 aminoacylation ribozyme variant] : self-aminoacylation is 1.95

###

Overview of reported self-aminoacylation across a group of sequences:
system: biotinyl-Trp-oxazolone; experiment: self-aminoacylation, catalytic enhancement (BWO) (fold over background); higher = more active; k-Seq, kA / k0A0; sequences stand for … in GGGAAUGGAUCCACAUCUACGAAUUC…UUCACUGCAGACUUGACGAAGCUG
Fewer inactive variants are shown than the library holds.

AAGUCUGCUAAUAGUCGCAAC [Fam3.1 aminoacylation ribozyme variant]; 0.655
CCACACUUGAAGCAAUCGGUC [Fam1B.1 aminoacylation ribozyme variant]; 0.805

self-aminoacylation reading for AUUACCCUGGCCAUCGAGCGA [Fam2.1 aminoacylation ribozyme variant] : 2.39

Reported self-aminoacylation ( CCAGACUUCAAGCAAUCGGUC [Fam1B.1 aminoacylation ribozyme variant] ) = 26

###

system: biotinyl-Val-oxazolone; assay: self-aminoacylation, catalytic enhancement (BVO) (fold over background); higher = more active; k-Seq, kA / k0A0; sequences stand for … in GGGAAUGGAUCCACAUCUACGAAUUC…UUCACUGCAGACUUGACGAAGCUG
Fewer inactive variants are shown than the library holds.
Measured Property: self-aminoacylation
No unit in the answer, please; the number alone is enough.

Worked cases, answers included:
CCACACUUCAAGCAAUCGGAA [Fam1B.1 aminoacylation ribozyme variant]; 1.51
CCACACAUCAAGCAGUCGGUC [Fam1B.1 aminoacylation ribozyme variant]; 1.05
AAGUUUACUAAUAGUCGCAAG [Fam3.1 aminoacylation ribozyme variant]; 1.32

The sequence listed as AAGUAUGCUAAUAGGCGCAAG [Fam3.1 aminoacylation ribozyme variant] has a reported self-aminoacylation of 1.18

self-aminoacylation measured on AUUCACCAAGGUCAACGGGUG [Fam2.2 aminoacylation ribozyme variant] = 3.1

###

sequences and their reported self-aminoacylation
system: biotinyl-Val-oxazolone; assay: self-aminoacylation, catalytic enhancement (BVO) (fold over background); higher = more active; k-Seq, kA / k0A0; sequences stand for … in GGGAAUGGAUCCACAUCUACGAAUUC…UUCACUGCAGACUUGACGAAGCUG
Fewer inactive variants are shown than the library holds.
Would you mind answering with just the numeric figure?

CUACUUCACAGAAUCGGUCUG [Fam1A.1 aminoacylation ribozyme variant]; 1.02
CCACACAUCAAGCCAUCGGUC [Fam1B.1 aminoacylation ribozyme variant]; 1.27

What the record says about AUUACUCUGGUCAUUGAGUGA [Fam2.1 aminoacylation ribozyme variant] : self-aminoacylation is 3.61

Noted for AUUACCCUGGUCAUCGAGUUA [Fam2.1 aminoacylation ribozyme variant] : its self-aminoacylation reads 4.86
